# ASSAY PROTOCOL: Inhibition of Magnaporthe grisea Guy 11 isocitrate lyase using isocitrate as substrate by spectrophotometric based glyoxylate cycle assay
# Set-up: species or system Pyricularia grisea
OBSERVED PROPERTY: IC50

Examples with answers:
C=C1CCC[C@H]2[C@](C)(CC3=CC(=O)C=C(NCCS(=O)(=O)O)C3=O)[C@@H](C)CC[C@@]12C	43.5 µg/mL
O=C(O)CC[N+](=O)[O-]	2.5 µg/mL
C=C1CCC[C@@]23C4=C(C[C@]2(C)[C@@H](C)CC[C@@]13C)C(=O)C(OC)=CC4=O	> 128 µg/mL

Next item in the queue.
Entry `C=C1CCC[C@H]2[C@](C)(CC3=CC(=O)C=C(N(C)CCS(=O)(=O)O)C3=O)[C@@H](C)CC[C@@]12C` has what IC50? 93.3 µg/mL

Each recorded value in this set is attributed to ChEMBL document CHEMBL3745680.
